molecular target: Tyrosine-protein kinase ABL1 (Homo sapiens); assay: Selectivity interaction (Kinase panel (33PanQinase(R) Activity Assay)) EUB0000877a ABL1
Sequence (P00519 whole entry): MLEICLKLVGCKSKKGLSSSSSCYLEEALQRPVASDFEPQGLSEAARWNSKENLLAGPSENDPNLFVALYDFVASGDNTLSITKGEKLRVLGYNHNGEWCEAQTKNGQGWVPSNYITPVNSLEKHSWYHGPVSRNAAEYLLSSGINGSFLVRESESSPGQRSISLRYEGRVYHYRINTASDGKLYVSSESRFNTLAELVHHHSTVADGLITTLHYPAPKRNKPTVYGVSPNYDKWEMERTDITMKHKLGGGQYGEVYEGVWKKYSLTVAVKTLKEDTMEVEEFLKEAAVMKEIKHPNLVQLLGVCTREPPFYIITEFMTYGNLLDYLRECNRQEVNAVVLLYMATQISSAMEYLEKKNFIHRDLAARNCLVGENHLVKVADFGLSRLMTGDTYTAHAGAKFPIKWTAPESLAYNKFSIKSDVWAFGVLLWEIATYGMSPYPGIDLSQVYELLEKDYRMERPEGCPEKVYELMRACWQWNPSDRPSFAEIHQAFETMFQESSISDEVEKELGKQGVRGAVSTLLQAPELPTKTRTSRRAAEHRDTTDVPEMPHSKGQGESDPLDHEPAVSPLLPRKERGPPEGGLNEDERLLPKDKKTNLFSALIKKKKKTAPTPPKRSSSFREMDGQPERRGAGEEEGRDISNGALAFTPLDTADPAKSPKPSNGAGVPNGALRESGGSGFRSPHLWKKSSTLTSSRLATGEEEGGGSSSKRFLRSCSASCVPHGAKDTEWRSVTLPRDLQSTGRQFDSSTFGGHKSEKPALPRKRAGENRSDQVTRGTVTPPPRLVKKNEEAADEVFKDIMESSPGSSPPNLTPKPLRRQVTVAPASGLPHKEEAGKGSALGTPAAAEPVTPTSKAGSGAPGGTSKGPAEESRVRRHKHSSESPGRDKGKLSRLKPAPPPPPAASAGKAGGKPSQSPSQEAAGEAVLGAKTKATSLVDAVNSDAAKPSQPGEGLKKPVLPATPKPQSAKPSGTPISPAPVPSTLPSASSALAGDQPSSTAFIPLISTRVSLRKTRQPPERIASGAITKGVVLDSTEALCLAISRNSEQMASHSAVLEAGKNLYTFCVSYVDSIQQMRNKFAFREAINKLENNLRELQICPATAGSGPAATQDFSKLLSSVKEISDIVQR

compound: CCC(=O)N1CC[C@H](Nc2ncnc3c2CN(c2cnc(OC)c(C(F)(F)F)c2)CC3)C1 [LENIOLISIB]
IC50: > 10 µM

---

Target sequence: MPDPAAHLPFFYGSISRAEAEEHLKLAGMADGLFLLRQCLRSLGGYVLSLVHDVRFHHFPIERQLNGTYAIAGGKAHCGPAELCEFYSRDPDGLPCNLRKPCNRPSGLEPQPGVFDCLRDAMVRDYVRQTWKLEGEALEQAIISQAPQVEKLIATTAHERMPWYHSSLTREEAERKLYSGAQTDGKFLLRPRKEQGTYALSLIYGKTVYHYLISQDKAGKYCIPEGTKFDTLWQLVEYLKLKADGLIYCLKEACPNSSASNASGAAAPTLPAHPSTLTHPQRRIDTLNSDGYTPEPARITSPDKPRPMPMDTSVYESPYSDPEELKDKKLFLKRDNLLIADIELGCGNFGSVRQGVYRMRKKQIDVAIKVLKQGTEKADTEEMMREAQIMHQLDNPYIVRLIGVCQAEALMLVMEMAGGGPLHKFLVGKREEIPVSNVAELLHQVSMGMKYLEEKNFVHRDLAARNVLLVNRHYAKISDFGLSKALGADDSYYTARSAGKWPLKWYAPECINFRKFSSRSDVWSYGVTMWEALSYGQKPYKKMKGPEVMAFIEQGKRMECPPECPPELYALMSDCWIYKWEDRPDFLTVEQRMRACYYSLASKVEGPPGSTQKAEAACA
measure: IC50

smiles.structure: CCc1cccc(CC)c1NC(=O)c1nn(C)c2c1CCc1cnc(Nc3ccc(C(=O)NC4CCN(C)CC4)cc3OC(F)(F)F)nc1-2
test.value: > 10 µM
